Consider the following compounds; for each one, report its Diameter of Inhibition Zones.
- Test system: B. subtilis
- procedure summary: Disc diffusion antibacterial screening
- Assay type: cell-based, Bacillus subtilis
- test parameters: B. subtilis (G + ve)
Numbers only, in mm.

Some compounds with known Diameter of Inhibition Zones results, for comparison:
compound	study system	unit label	data value
CCCCCCCCCCCC(=O)O[C@@H]1[C@@H](OC(=O)CCCCCCCCCCC)[C@@H](OC)O[C@H](COC(=O)c2ccc(OC)cc2)[C@H]1OC(=O)CCCCCCCCCCC [Compound 8]	B. subtilis	mm	9
CCCCCCCCCCCCCC(=O)O[C@@H]1[C@@H](OC(=O)CCCCCCCCCCCCC)[C@@H](OC)O[C@H](COC(c2ccccc2)(c2ccccc2)c2ccccc2)[C@H]1OC(=O)CCCCCCCCCCCCC [Compound 4]	B. subtilis	mm	10

Consider now this further compound.
Output reported Diameter of Inhibition Zones of the compound CO[C@H]1O[C@H](COC(c2ccccc2)(c2ccccc2)c2ccccc2)[C@@H](O)[C@H](O)[C@H]1O [Compound 2] on B. subtilis. 8

---

Consider the following compounds; for each one, report its Diameter of Inhibition Zones.
- System: S. aureus
- procedure summary: Disc diffusion antibacterial screening
- Assay type: cell-based
- test parameters: S. aureus (G + ve)

compound	Diameter of Inhibition Zones
CCCCCCCCCCCC(=O)O[C@@H]1[C@@H](OC(=O)CCCCCCCCCCC)[C@@H](OC)O[C@H](COC(=O)c2ccc(OC)cc2)[C@H]1OC(=O)CCCCCCCCCCC [Compound 8]	11 ± 0.2 mm

Consider now this further compound.
Please look at this compound and report its Diameter of Inhibition Zones: COc1ccc(C(=O)OC[C@H]2O[C@H](OC)[C@H](O)[C@@H](O)[C@@H]2O)cc1 [Compound 7] 10 ± 0.1 mm
